# run-description: Selectivity ratio of IC50 values of 5-hydroxytryptamine 1A receptor vs 5-hydroxytryptamine 2 receptor
Quick rule for you: Selectivity ratio under 30 gets rule met, anything else gets rule not met.

Check out these entries, answers already filled in.
molecule: COc1ccc2c(c1)C=C(CCN1CCN(c3ccccc3)CC1)CC2
assigned-class: rule met
//
molecule: COc1cccc2c1CCC=C2CCCN1CCN(c2ccccc2)CC1
assigned-class: rule met

Now consider a different molecule.
Ask: # check: Selectivity ratio < 30 for COc1cccc2c1CCC/C2=C\CCN1CCN(c2ccccc2)CC1
Result: rule not met

* * *

Answer each item with its documented Selectivity ratio.
# run-description: Selectivity ratio of IC50 values of 5-hydroxytryptamine 1A receptor vs 5-hydroxytryptamine 2 receptor
One number for each entry.

molecule: COc1ccc2c(c1)CC(CCN1CCN(c3ccccc3)CC1)CC2 (centres undefined)
observed-value: 64

Hi team, please reply with Selectivity ratio for each item in this list.
1. COc1cccc2c1CCCC2CCCN1CCN(c2ccccn2)CC1 (centres undefined)
2. COc1cccc2c1CCCC2CCN1CCN(c2ccccc2)CC1 (centres undefined)
3. COc1cccc2c1CCC(CCN1CCN(c3ccccc3)CC1)C2 (centres undefined)

Result:
[462, 0.1, 3]

Provenance of the data: ChEMBL document CHEMBL1129592
